- target under test: DCAF1 (DDB1-Cul4 associated factor 1), WDR domain (Homo sapiens)
- Sequence (Q9Y4B6 1038-1400): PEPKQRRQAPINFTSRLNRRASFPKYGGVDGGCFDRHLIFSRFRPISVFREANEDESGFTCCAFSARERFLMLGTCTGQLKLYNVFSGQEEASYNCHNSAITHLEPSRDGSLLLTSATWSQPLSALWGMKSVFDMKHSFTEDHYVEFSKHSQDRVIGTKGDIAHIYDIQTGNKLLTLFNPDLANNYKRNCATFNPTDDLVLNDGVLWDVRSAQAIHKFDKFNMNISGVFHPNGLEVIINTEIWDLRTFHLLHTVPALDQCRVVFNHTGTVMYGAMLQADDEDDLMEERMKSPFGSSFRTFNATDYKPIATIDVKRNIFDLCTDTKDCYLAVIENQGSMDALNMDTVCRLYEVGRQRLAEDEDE
pKd: −log10 of the molar value.
measured metric: pKd

Observed pKd on DCAF1 (DDB1-Cul4 associated factor 1), WDR domain (Homo sapiens) for Fc1cccc(N2CCCC(Nc3cc(N4CCOCC4)ncn3)C2)c1 (stereo not shown) , please. ~4.15

All values here come from paper PMC10337664.
